molecular target: Cdc7/Dbf4 (Homo sapiens, UniProt O00311); assay: Cdc7 Biochemical Assay Method 3: Cdc7/Dbf4 Enzyme TR-FRET Assay measuring pS40MCM2; conditions: 1 μM ATP, read-out: Biochemical Method 3 (pIC50) (converted)
Mark condition met for IC50 under 7 nM, condition not met if at or over.

Request: Is IC50 of O=c1[nH]c(-c2ccnc(F)c2)nc(N2CCN[C@H](C3(O)CC3)C2)c1Cl strictly below 7 nM?
Result: condition met

Request: Is IC50 of O=c1[nH]c(-c2ccnc(F)c2)nc(CN2CCOCC2)c1Cl strictly below 7 nM?
Result: condition not met

Request: Is IC50 of O=c1[nH]c(-c2ccnc(F)c2)nc(N2CCNCC(O)C2)c1Cl (stereo not drawn) strictly below 7 nM?
Result: condition met

Request: Is IC50 of CC(C)c1nnc2n1CCN(c1nc(-c3ccnc(F)c3)[nH]c(=O)c1Cl)C2 strictly below 7 nM?
Result: condition not met

Request: Is IC50 of O=c1[nH]c(-c2ccnc(F)c2)nc(O[C@H]2CCCNC2)c1Cl strictly below 7 nM?
Result: condition not met

Request: Is IC50 of N[C@H]1CCN(c2nc(-c3ccnc(F)c3)[nH]c(=O)c2Cl)C1 strictly below 7 nM?
Result: condition met

Request: Is IC50 of CNC(=O)C1CCCN(c2nc(-c3ccnc(F)c3)[nH]c(=O)c2Cl)C1 (stereo not drawn) strictly below 7 nM?
Result: condition not met

Request: Is IC50 of O=c1[nH]c(-c2ccnc(F)c2)nc(N2CCc3nncn3CC2)c1Cl strictly below 7 nM?
Result: condition met

Request: Is IC50 of C[C@@H]1CNCCCN1c1nc(-c2ccnc(F)c2)[nH]c(=O)c1Cl strictly below 7 nM?
Result: condition met

* * *

Exercise: state measured log10 EC50 for each of the compounds provided.
tested on: Cdc7 (pS53MCM2 levels in HCT116 cells); experiment: Cdc7 Cell Pharmacodynamics Assay Method 1: pS53MCM2 levels in HCT116 cells, 6 hours; format: cell-based; conditions: Homo sapiens, HCT-116, 6 h, read-out: Biomarker Method 1 (pEC50) (converted)
Structures can show the parent of a compound that is named as a salt.
Would you kindly interpret these values as log10 of EC50 expressed in nM?

Request: Provide measured log10 EC50 on Cdc7 (pS53MCM2 levels in HCT116 cells) for CC(C)(C)[C@H]1CN(c2nc(-c3ccnc(F)c3)[nH]c(=O)c2Cl)CCN1 please.
Result: 1.63

Request: Provide measured log10 EC50 on Cdc7 (pS53MCM2 levels in HCT116 cells) for CC1CCN(c2nc(-c3ccncc3)[nH]c(=O)c2Cl)CC1 please.
Result: 2.62

Request: Provide measured log10 EC50 on Cdc7 (pS53MCM2 levels in HCT116 cells) for C[C@@H]1CN(c2nc(-c3ccncc3)[nH]c(=O)c2Cl)CCN1 please.
Result: 2.66

Request: Provide measured log10 EC50 on Cdc7 (pS53MCM2 levels in HCT116 cells) for O=c1[nH]c(-c2ccncc2)nc(N2CCCC(F)(F)C2)c1Cl please.
Result: 1.53

Request: Provide measured log10 EC50 on Cdc7 (pS53MCM2 levels in HCT116 cells) for O=c1[nH]c(-c2ccncc2)nc(N2CCNCC2)c1Cl [Compound 416, hydrochloride] please.
Result: 2.04

Request: Provide measured log10 EC50 on Cdc7 (pS53MCM2 levels in HCT116 cells) for CN1CCN(c2nc(-c3ccncc3)[nH]c(=O)c2Cl)CC1 please.
Result: 2.29

Request: Provide measured log10 EC50 on Cdc7 (pS53MCM2 levels in HCT116 cells) for CC(C)[C@H]1CN(c2nc(-c3ccncc3)[nH]c(=O)c2Br)CCN1 please.
Result: 2.41

Request: Provide measured log10 EC50 on Cdc7 (pS53MCM2 levels in HCT116 cells) for O=c1[nH]c(-c2ccncc2)nc(N2CCC(C(F)(F)F)C2)c1Cl (stereo not drawn) please.
Result: 2.82

Request: Provide measured log10 EC50 on Cdc7 (pS53MCM2 levels in HCT116 cells) for O=c1[nH]c(-c2ccncc2)nc(N2CCOC(CCO)C2)c1Cl (stereo not drawn) please.
Result: 2.88

Request: Provide measured log10 EC50 on Cdc7 (pS53MCM2 levels in HCT116 cells) for O=C(N1CCN(c2nc(-c3ccncc3)[nH]c(=O)c2Cl)CC1)C(F)(F)F please.
Result: 2.26

Request: Provide measured log10 EC50 on Cdc7 (pS53MCM2 levels in HCT116 cells) for NC[C@H]1CCCN(c2nc(-c3ccnc(F)c3)[nH]c(=O)c2Cl)C1 please.
Result: 2.48

Request: Provide measured log10 EC50 on Cdc7 (pS53MCM2 levels in HCT116 cells) for O=c1[nH]c(-c2ccncc2)nc(N2CCN[C@@H](Cc3ccccc3)C2)c1Cl please.
Result: 2.86

Request: Provide measured log10 EC50 on Cdc7 (pS53MCM2 levels in HCT116 cells) for NC1CCN(c2nc(-c3ccnc(F)c3)[nH]c(=O)c2Cl)CC1 please.
Result: 2.66

Request: Provide measured log10 EC50 on Cdc7 (pS53MCM2 levels in HCT116 cells) for O=c1[nH]c(-c2ccncc2)nc(N2CCC(O)CC2)c1Cl please.
Result: 2.19

Request: Provide measured log10 EC50 on Cdc7 (pS53MCM2 levels in HCT116 cells) for O=c1[nH]c(-c2ccncc2)nc(N2CCCCCC2)c1Cl please.
Result: 3.19

Request: Provide measured log10 EC50 on Cdc7 (pS53MCM2 levels in HCT116 cells) for O=c1[nH]c(-c2ccncc2)nc(N2CCN(CC3CCCCC3)CC2)c1Cl please.
Result: 2.95

Request: Provide measured log10 EC50 on Cdc7 (pS53MCM2 levels in HCT116 cells) for N#CC1CCN(c2nc(-c3ccncc3)[nH]c(=O)c2Cl)CC1 please.
Result: 2.10

Request: Provide measured log10 EC50 on Cdc7 (pS53MCM2 levels in HCT116 cells) for C[C@@H]1CNCCN1c1nc(-c2ccncc2)[nH]c(=O)c1Cl please.
Result: 1.31

* * *

target: Cdc7/ASK (Homo sapiens); assay: Cdc7 Biochemical Assay Method 1: 384 well ELISA, whole protein substrate MCM2, antibody against Phospho MCM2 (S53); set-up: purchased; conditions: 2 μM ATP, read-out: Biochemical Method 1 (pIC50) (converted)
Sequence (O00311 whole entry): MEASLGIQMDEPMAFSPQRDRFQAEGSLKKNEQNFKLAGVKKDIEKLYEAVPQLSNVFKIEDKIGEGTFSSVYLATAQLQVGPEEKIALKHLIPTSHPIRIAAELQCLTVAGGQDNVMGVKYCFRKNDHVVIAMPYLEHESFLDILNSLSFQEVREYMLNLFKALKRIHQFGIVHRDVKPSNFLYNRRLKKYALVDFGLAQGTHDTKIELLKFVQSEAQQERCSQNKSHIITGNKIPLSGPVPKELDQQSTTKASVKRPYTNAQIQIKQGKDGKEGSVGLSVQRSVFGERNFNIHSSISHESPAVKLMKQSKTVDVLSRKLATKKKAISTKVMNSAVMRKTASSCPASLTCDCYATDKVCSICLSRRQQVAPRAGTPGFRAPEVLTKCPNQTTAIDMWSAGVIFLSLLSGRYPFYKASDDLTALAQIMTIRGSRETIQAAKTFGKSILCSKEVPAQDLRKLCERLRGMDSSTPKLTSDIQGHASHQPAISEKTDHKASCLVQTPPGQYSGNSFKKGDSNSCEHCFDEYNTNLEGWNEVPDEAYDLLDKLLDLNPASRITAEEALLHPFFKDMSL
Sequence (Q9UBU7 whole entry partner): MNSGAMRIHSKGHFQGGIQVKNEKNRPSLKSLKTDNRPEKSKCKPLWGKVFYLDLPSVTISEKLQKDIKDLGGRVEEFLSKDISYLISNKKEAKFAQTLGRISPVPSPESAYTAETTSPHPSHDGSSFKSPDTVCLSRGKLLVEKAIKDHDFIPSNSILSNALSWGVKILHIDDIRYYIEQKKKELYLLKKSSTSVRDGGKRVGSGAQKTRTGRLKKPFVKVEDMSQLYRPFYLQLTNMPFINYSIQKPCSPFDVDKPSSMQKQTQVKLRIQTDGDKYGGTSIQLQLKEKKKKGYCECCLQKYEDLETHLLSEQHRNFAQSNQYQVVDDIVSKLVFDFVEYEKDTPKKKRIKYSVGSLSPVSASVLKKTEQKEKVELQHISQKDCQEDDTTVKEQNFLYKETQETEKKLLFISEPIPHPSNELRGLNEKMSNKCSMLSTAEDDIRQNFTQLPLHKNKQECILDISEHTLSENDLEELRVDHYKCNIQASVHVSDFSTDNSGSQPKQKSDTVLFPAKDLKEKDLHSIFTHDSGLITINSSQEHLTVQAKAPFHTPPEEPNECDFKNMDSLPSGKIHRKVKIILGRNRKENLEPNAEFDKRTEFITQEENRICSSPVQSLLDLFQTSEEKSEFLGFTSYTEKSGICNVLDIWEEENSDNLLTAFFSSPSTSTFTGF
Exercise: state measured IC50 for each of the molecules provided.
Give the value; after it, write the unit.

Request: Write down IC50 measured for item O=c1[nH]c(-c2ccncc2)nc(N2CCNC(C(F)(F)F)C2)c1Cl (stereo not drawn)
Result: 4.37 nM

Request: Write down IC50 measured for item O=C(c1cn[nH]c1)N1CCC(c2nc(-c3ccncc3)[nH]c(=O)c2Cl)CC1
Result: 2.69 nM

Request: Write down IC50 measured for item O=c1[nH]c(-c2ccncc2)nc(N2CCN[C@@H](Cc3ccccc3)C2)c1Cl
Result: 20.9 nM

Request: Write down IC50 measured for item O=c1[nH]c(-c2ccncc2)nc(C2CCNC2)c1Cl (stereo not drawn)
Result: 5.25 nM

Request: Write down IC50 measured for item C[C@@H]1CN(c2nc(-c3ccncc3)[nH]c(=O)c2Cl)CCN1
Result: 6.03 nM

Request: Write down IC50 measured for item CC(C)(C)[C@H]1CN(c2nc(-c3ccncc3)[nH]c(=O)c2Cl)CCN1
Result: 2.95 nM

Request: Write down IC50 measured for item CC(=O)N1CCN(c2nc(-c3ccncc3)[nH]c(=O)c2Cl)CC1
Result: 5.13 nM

Request: Write down IC50 measured for item O=c1[nH]c(-c2ccncc2)nc(N2CCCCC2)c1Cl
Result: 6.76 nM

Request: Write down IC50 measured for item CS(=O)(=O)N1CCCN(c2nc(-c3ccncc3)[nH]c(=O)c2Cl)CC1
Result: 2.51 nM

* * *

tested on: Cdc7 (pS40MCM2 levels in HCT116 cells); assay: Cdc7 Cell Pharmacodynamics Assay Method 2A: pS40MCM2 levels in HCT116 cells, 6 hours; type: cell-based; settings: Homo sapiens, HCT-116, read-out: Biomarker Method 2A (pEC50) (converted)
Where a name gives a salt, the structure may show the parent alone.
Note to self: class = bucket of EC50, per range A: < 60 nM; range B: ≥ 60 nM and < 300 nM; range C: ≥ 300 nM

Request: Kindly identify the class of CC[C@@H]1CN(c2nc(-c3ccnc(F)c3)[nH]c(=O)c2Cl)CCO1 [Compound 205] .
Result: range B

Request: Kindly identify the class of CC(C)[C@H]1CN(c2nc(-c3ccnc(F)c3)[nH]c(=O)c2Cl)CCN1 [Compound 170] .
Result: range A

Request: Kindly identify the class of CN[C@@H]1CCCN(c2nc(-c3ccnc(F)c3)[nH]c(=O)c2Cl)C1 [Compound 196] .
Result: range B

Request: Kindly identify the class of C[C@H]1CN(c2nc(-c3ccncc3)[nH]c(=O)c2Cl)CCN1 [Compound 130] .
Result: range C

Request: Kindly identify the class of N[C@@H]1CN(c2nc(-c3ccnc(F)c3)[nH]c(=O)c2Cl)CC[C@H]1O [Compound 235] .
Result: range C

Request: Kindly identify the class of O=c1[nH]c(-c2ccncc2)nc(N2CCN[C@@H](C(F)(F)F)C2)c1Cl [Compound 180] .
Result: range A

Request: Kindly identify the class of O=c1[nH]c(-c2ccncc2)nc(N2CCN(CC(F)F)CC2)c1Cl [Compound 147] .
Result: range C

Request: Kindly identify the class of O=c1[nH]c(-c2ccnc(F)c2)nc(N2CCNCC2)c1Cl [Compound 360] .
Result: range B

Request: Kindly identify the class of O=c1[nH]c(-c2ccnc(F)c2)nc(N2CCNCC(O)C2)c1Cl (stereo not shown) [Compound 190] .
Result: range C

Request: Kindly identify the class of O=C1CCN(c2nc(-c3ccnc(F)c3)[nH]c(=O)c2Cl)CC1 [Compound 234] .
Result: range A

Request: Kindly identify the class of O=c1[nH]c(-c2ccnc(F)c2)nc(N2C3CCC2COC3)c1Cl [Compound 192] .
Result: range B

Request: Kindly identify the class of C[C@H]1CNCCN1c1nc(-c2ccnc(F)c2)[nH]c(=O)c1Cl [Compound 326] .
Result: range A

Request: Kindly identify the class of N[C@@H]1CCCCN(c2nc(-c3ccnc(F)c3)[nH]c(=O)c2Cl)C1 [Compound 183] .
Result: range B

Request: Kindly identify the class of O=c1[nH]c(-c2ccnc(F)c2)nc(N2C3CCCC2COC3)c1Cl [Compound 334] .
Result: range B

Request: Kindly identify the class of O=c1[nH]c(-c2ccnc(F)c2)nc(N2CCC3NCCCC32)c1Cl (stereo not shown) [Compound 223] .
Result: range A

Request: Kindly identify the class of O=c1[nH]c(-c2ccnc(F)c2)nc(N2CCOCC2)c1Cl [Compound 316] .
Result: range A

Request: Kindly identify the class of O=c1[nH]c(-c2ccnc(F)c2)nc(N2CCNCC(F)(F)C2)c1Cl [Compound 312, hydrochloride] .
Result: range A

Request: Kindly identify the class of O=c1[nH]c(-c2ccnc(F)c2)nc(N2CCC3NCCC32)c1Cl (stereo not shown) [Compound 243] .
Result: range B

Request: Kindly identify the class of O=c1[nH]c(-c2ccnc(F)c2)nc(N2CCC3CCNCC32)c1Cl (stereo not shown) [Compound 221] .
Result: range C

Data origin, for the record: patent US10919896B2
